The reported measurements were obtained from paper PMC6792352.

test system: GH3-TRE-Luc cell line; conditions: read-out: AC50 (uM) modified / 1000; Tox21_110001=Tox21_300109; viability, 1 nM T3 present, 24 h
measure: CC50 (µM)
Your answer is read as µM, so omit the unit and give the number.

Entry ClC(Cl)=C(c1ccc(Cl)cc1)c1ccc(Cl)cc1 [p,p'-DDE] , GH3-TRE-Luc cell line data, CC50 value: 63.5

====

assay: in vitro; conditions: rat, gh3-tre-luc cells, AC50 (uM) modified / 1000, Tox21_110001=Tox21_300743; viability, 1 nM T3 present, 24 h
measure: CC50 at 24 h (µM)
Your answer is read as µM, so omit the unit and give the number.

Please fill in: CC50 at 24 h reported for CC(C)(C)c1cc([N+](=O)[O-])cc([N+](=O)[O-])c1O = 8.14

====

// reported CC50 at 24 h for each item listed
test: in vitro; settings: rat, gh3-tre-luc cells, AC50 (uM) modified / 1000
Structures can show the parent of a compound that is named as a salt.

Known CC50 at 24 h results, listed for orientation:
compound	measure	result
CC(NN)c1ccccc1 (centres unmarked) [Mebanazine]	CC50 at 24 h	> 50 µM
C=CCCC=C [1,5-Hexadiene]	CC50 at 24 h	> 90 µM
OCC1(CO)COC(C(Cl)(Cl)Cl)OC1 [Penthrichloral]	CC50 at 24 h	> 50 µM
OCCOC[C@H]1O[C@H](OCCO)[C@H](OCCO)[C@@H](OCCO)[C@@H]1OCCO [Hydroxyethyl starch]	CC50 at 24 h	> 50 µM
CC1COc2c(N3CCN(C)CC3)c(F)cc3c(=O)c(C(=O)O)cn1c23 (centres unmarked) [Ofloxacin]	CC50 at 24 h	> 50 µM

Please fill in: CC50 at 24 h reported for CC(C)(C)CC(C)(C)c1ccccc1O [(1,1,3,3-Tetramethylbutyl)phenol (all isomers)] = 31.1 µM

Please fill in: CC50 at 24 h reported for O=C(O)CCCCCCCCCC(=O)O [Undecanedioic acid] = > 90 µM

Please fill in: CC50 at 24 h reported for CNCC(O)c1ccc(OC(=O)C(C)(C)C)c(OC(=O)C(C)(C)C)c1 (centres unmarked) [Dipivefrin hydrochloride] = 10.3 µM

Please fill in: CC50 at 24 h reported for Cc1ccc(N)cc1Cl [3-Chloro-4-methylaniline] = > 90 µM

Please fill in: CC50 at 24 h reported for CCN1CCN(c2cc3c(cc2F)c(=O)c(C(=O)O)cn3C2CC2)CC1 [Enrofloxacin] = > 50 µM

====

assay: in vitro; settings: rat, gh3-tre-luc cells, AC50 (uM) modified / 1000, Tox21_110001=Tox21_112075; viability, 1 nM T3 present, 24 h
measure: CC50 at 24 h

Please fill in: CC50 at 24 h reported for COP(=S)(OC)Oc1ccc(Sc2ccc(OP(=S)(OC)OC)cc2)cc1 = > 50 µM

====

system: GH3-TRE-Luc cell line; conditions: read-out: AC50 (uM) modified / 1000; Tox21_110001=Tox21_112013; viability, 1 nM T3 present, 24 h
measure: CC50 (µM)
Your answer is read as µM, so omit the unit and give the number.

Please fill in: CC50 reported for O=C1CN(/N=C/c2ccc(-c3ccc([N+](=O)[O-])cc3)o2)C(O)=N1 [Dantrolene sodium] = 11.2

====

experiment: in vitro; details: rat, gh3-tre-luc cells, AC50 (uM) modified / 1000, Tox21_110001=Tox21_202325; viability, 1 nM T3 present, 24 h
measure: CC50 at 24 h
# include the unit after the value

Please fill in: CC50 at 24 h reported for N#CSCSC#N [Methylene bis(thiocyanate)] = 3.41 µM

====

experiment: in vitro; conditions: rat, gh3-tre-luc cells, AC50 (uM) modified / 1000, Tox21_110001=Tox21_113313; viability, 1 nM T3 present, 24 h
measure: CC50 at 24 h

Please fill in: CC50 at 24 h reported for O=C(O)CCCCCCNC1c2ccccc2CCc2ccccc21 = > 50 µM

====

experiment: in vitro; conditions: rat, gh3-tre-luc cells, AC50 (uM) modified / 1000, Tox21_110001=Tox21_302015; viability, 1 nM T3 present, 24 h
measure: CC50 at 24 h

Please fill in: CC50 at 24 h reported for CCCCNP(N)(N)=S [N-Butylphosphorothioic triamide] = > 90 µM

====

assay: in vitro; conditions: rat, gh3-tre-luc cells, AC50 (uM) modified / 1000, Tox21_110001=Tox21_202132; viability, 1 nM T3 present, 24 h
measure: CC50 at 24 h

Please fill in: CC50 at 24 h reported for O=NN1CCOCC1 [N-Nitrosomorpholine] = > 100 µM

====

// reported CC50 at 24 h for each item listed
assay: in vitro; conditions: rat, gh3-tre-luc cells, AC50 (uM) modified / 1000
Your answer is read as µM, so omit the unit and give the number.

sample.smiles	result.number
O=C(Nc1ccc(Br)cc1)c1cc(Br)c(Br)s1	19.8

Here is another compound to look at.
Please fill in: CC50 at 24 h reported for Cc1c(C(=O)NN2CCCCC2)nn(-c2ccc(Cl)cc2Cl)c1-c1ccc(Cl)cc1 = 13.9

====

assay: in vitro; conditions: rat, gh3-tre-luc cells, AC50 (uM) modified / 1000, Tox21_110001=Tox21_112831; viability, 1 nM T3 present, 24 h
measure: CC50 at 24 h
# include the unit after the value

Please fill in: CC50 at 24 h reported for CC[C@H](OC(C)=O)C(C[C@H](C)NC)(c1ccccc1)c1ccccc1 = 17.4 µM

====

test: in vitro; settings: rat, gh3-tre-luc cells, AC50 (uM) modified / 1000, Tox21_110001=Tox21_301354; viability, 1 nM T3 present, 24 h
measure: CC50 at 24 h

Please fill in: CC50 at 24 h reported for O=[N+]([O-])c1ccc(Oc2ccc(C(F)(F)F)cc2[N+](=O)[O-])cc1 = > 90 µM

====

tested on: GH3-TRE-Luc cell line; conditions: read-out: AC50 (uM) modified / 1000; Tox21_110001=Tox21_202482; viability, 1 nM T3 present, 24 h
Starred links: 1 amine or outer side, 2 acyl side, 3 side chain; linkers in the order of their positions; H or OH if unused. Positions of bridges follow the written chain, without caps; N, C: chain ends. Non-standard residues stand in square brackets, D forms with d. Residues, ends and D or L forms follow the SMILES beside them. Chains are numbered I, II in the order given. Actinocin(9to1) = Cc1c2oc3c(C)ccc(C(=O)[*:1])c3nc-2c(C(=O)[*:2])c(N)c1=O; NMeV = CN[C@H](C(=O)O)C(C)C; Sar = CNCC(=O)O
measure: CC50 (µM)
Your answer is read as µM, so omit the unit and give the number.

Please fill in: CC50 reported for Cc1c2oc3c(C)ccc(C(=O)N[C@@H]4C(=O)N[C@H](C(C)C)C(=O)N5CCC[C@H]5C(=O)N(C)CC(=O)N(C)[C@@H](C(C)C)C(=O)O[C@@H]4C)c3nc-2c(C(=O)N[C@@H]2C(=O)N[C@H](C(C)C)C(=O)N3CCC[C@H]3C(=O)N(C)CC(=O)N(C)[C@@H](C(C)C)C(=O)O[C@@H]2C)c(N)c1=O [Actinomycin D] (I: T[dV]P[Sar][NMeV] / II: T[dV]P[Sar][NMeV]; ester I:1-I:C, II:1-II:C; linker I:N-II:N via Actinocin(9to1)) = 0.000903

====

target: TRα ligand-binding domain (Homo sapiens); construct: the receptor LBDs expressed as glutathione S-transferase (GST) fusion proteins; purchased; experiment: TRa-coa LanthaScreen TR-FRET coactivator (SRC-2 peptide) recruitment, agonist (TOX21_TRA_COA_Agonist_Followup_ratio, aeid 2230); format: biochemical; settings: hit call from tcpl; agonist
Sequence (P10827 163-410 isoform P10827-2 limits assumed, other chains not shown): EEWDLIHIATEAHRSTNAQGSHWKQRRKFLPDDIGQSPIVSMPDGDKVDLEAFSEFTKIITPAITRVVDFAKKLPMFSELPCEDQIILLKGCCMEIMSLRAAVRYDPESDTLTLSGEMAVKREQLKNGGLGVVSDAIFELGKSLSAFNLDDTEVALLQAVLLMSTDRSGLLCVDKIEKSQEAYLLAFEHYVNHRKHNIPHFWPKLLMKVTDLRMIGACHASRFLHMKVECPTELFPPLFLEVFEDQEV
Structures can show the parent of a compound that is named as a salt.
// reported TRa-coa hitc for each item listed
// response body must contain only the number

compound	result.number
Cl.NC(CO)(CO)CO [Tromethamine hydrochloride]	1
Cc1cccc(C)c1[N+](=O)[O-] [1,3-Dimethyl-2-nitrobenzene]	0
CC(C)(c1ccccc1)c1ccc(O)c(C(C)(C)c2ccccc2)c1 [2,4-Bis(1-methyl-1-phenylethyl)phenol]	0
O=C(O)Cc1cc(I)c(Oc2cc(I)c(O)c(I)c2)c(I)c1 [Tetrac, 3,3ʹ,5,5ʹ-tetraiodothyroacetic acid]	1
Cc1ccc(O)cc1 [Cresol]	0

Entry NCC(=O)CCC(=O)O [Aminolevulinic acid hydrochloride] , TRα ligand-binding domain (Homo sapiens) data, TRa-coa hitc value: 0

Entry c1csc(-c2ccc(-c3cccs3)s2)c1 [alpha-Terthiophene] , TRα ligand-binding domain (Homo sapiens) data, TRa-coa hitc value: 0

Entry N[C@@H](Cc1ccc(Oc2cc(I)c(O)c(I)c2)c(I)c1)C(=O)O [3,3',5'-Triiodo-L-thyronine] , TRα ligand-binding domain (Homo sapiens) data, TRa-coa hitc value: 1

Entry CSCC[C@H](NC(=O)[C@H](Cc1ccc(OS(=O)(=O)O)cc1)NC(=O)[C@@H](N)CC(=O)O)C(=O)NCC(=O)N[C@@H](Cc1c[nH]c2ccccc12)C(=O)N[C@@H](CCSC)C(=O)N[C@@H](CC(=O)O)C(=O)N[C@@H](Cc1ccccc1)C(N)=O [Sincalide, reference compound] , TRα ligand-binding domain (Homo sapiens) data, TRa-coa hitc value: 0

Entry N[C@@H](Cc1cc(I)c(Oc2cc(I)c(O)c(I)c2)c(I)c1)C(=O)O [Levothyroxine, reference compound] , TRα ligand-binding domain (Homo sapiens) data, TRa-coa hitc value: 1

Entry CC1=C(/C=C/C(C)=C/C=C/C(C)=C/C(=O)O)C(C)(C)CCC1 [all trans-Retinoic acid, reference compound] , TRα ligand-binding domain (Homo sapiens) data, TRa-coa hitc value: 0

Entry CC(C)(C)CC(C)(C)c1ccc(O)c(Cc2ccc(Cl)cc2Cl)c1 [Clofoctol, reference compound] , TRα ligand-binding domain (Homo sapiens) data, TRa-coa hitc value: 1

Entry CN(C)c1ccc(N=O)cc1 [N,N-dimethyl-4-nitrosoaniline] , TRα ligand-binding domain (Homo sapiens) data, TRa-coa hitc value: 0

Entry CNC(=O)ON=C(CSC)C(C)(C)C [Thiofanox] , TRα ligand-binding domain (Homo sapiens) data, TRa-coa hitc value: 0

Entry Cc1occc(=O)c1O [Maltol] , TRα ligand-binding domain (Homo sapiens) data, TRa-coa hitc value: 0

Entry C[C@]12CC[C@H]3C(=CCc4cc(O)ccc43)[C@@H]1CCC2=O [Equilin, reference compound] , TRα ligand-binding domain (Homo sapiens) data, TRa-coa hitc value: 0
